system: Lolium perenne (LOLPE); assay: Glasshouse assay for herbicidal activity (pre- and post-emergence), percentage phytotoxicity; type: in vivo; conditions: Lolium perenne, pre-emergence, 480 h, PRE-emergence, rate 250 g/ha, visual score 20 DAA (100%=total damage, 0%=no damage); read-out: Pre-emergence herbicidal activity (percentage phytotoxicity) LOLPE PRE
Reported Metric: pest or weed control at 250 g/ha (%)

compound="C=CCNC(=O)CC1CC(=O)C(c2c(C)cc(-n3cc(Cl)cn3)cc2C)C1=O (stereo not shown)" measured=80
compound="CCCNC(=O)CC1CC(=O)C(c2c(C)cc(-n3cc(Cl)cn3)cc2C)C1=O (stereo not shown)" measured=90
compound="COCC(C)(C)NC(=O)CC1CC(=O)C(c2c(C)cc(-c3ncc(F)cn3)cc2C)C1=O (stereo not shown)" measured=100
compound="Cc1cc(OCC(F)(F)F)cc(C)c1C1C(=O)CC(CC(=O)NCc2ccc(C#N)cc2)C1=O (stereo not shown)" measured=10
